Hey, just so you know, these numbers are from patent US4873249A.

Assay: in vivo
Format: in vivo
Conditions: mouse, in vivo, po; mice, LD50/writhing ID50; read-out: TI (therapeutic index)
property: selectivity ratio
Give bare numbers.

Input line: Param item = CC(=O)Oc1ccccc1C(=O)O [Acetylsalicylic acid] ; retrieve measured selectivity ratio.
Output line: 5.2
